For each of the compounds below, state its pIC50.
biological target: recombinant human PDE4; construct: PDE4 IC50; other: human recombinant PDE4; test: PDE4 inhibition, charcoal separation [32P]cAMP phosphodiesterase assay; type: biochemical
One number for each entry, as −log10 of the molar value.

Before answering, review these 6 worked examples.
compound: COC(=O)N1CC(c2ccc(OC)c(OC3CCCC3)c2)[C@](C)(CNS(=O)(=O)c2ccccc2)C1 (some centres unmarked)
pIC50: 6.30
--
compound: COc1ccc([C@@H]2CN(Cc3ccccc3)C[C@@]2(C)C(C)NS(C)(=O)=O)cc1OC1CCCC1 (some centres unmarked) [Example 18]
pIC50: 5.13
--
compound: COc1ccc([C@@H]2CN(C(=O)C(C)(C)O)C[C@@]2(C)CN)cc1OCC1CC1
pIC50: 6.63
--
compound: COC(=O)N1C[C@@H](c2ccc(OC)c(OC3CCCC3)c2)[C@](C)(CNC(C)=O)C1
pIC50: 5.51
--
compound: COc1ccc([C@@H]2CN(Cc3ccccc3)C[C@@]2(C)C(C)NC(=O)c2ccccc2)cc1OC1CCCC1 (some centres unmarked) [Example 10]
pIC50: 5.53
--
compound: COc1ccc(C2CN(Cc3ccccc3)C[C@]2(C)CN(C)C)cc1OC1CCCC1 (some centres unmarked)
pIC50: 5.23

# return pIC50 for each item in the list
1. CNC[C@]1(C)CN(Cc2ccccc2)CC1c1ccc(OC)c(OC2CCCC2)c1 (some centres unmarked)
2. COc1ccc([C@@H]2CN(Cc3ccccc3)C[C@@]2(C)C(C)NC(C)=O)cc1OC1CCCC1 (some centres unmarked) [Example 13]

1: 5.12; 2: 5.61

# return pIC50 for each item in the list
1. COc1ccc([C@@H]2CN(Cc3ccccc3)C[C@@]2(C)C(C)NS(=O)(=O)c2ccccc2)cc1OC1CCCC1 (some centres unmarked)
2. COc1ccc([C@@H]2CN(C(=O)CO)C[C@@]2(C)CN)cc1OCC1CC1
3. COc1ccc([C@@H]2CN(Cc3ccccc3)C[C@@]2(C)C(C)N)cc1OC1CCCC1 (some centres unmarked) [Example 8]

[5.05, 6.32, 6.17]

----------
tested on: TNFα secretion in human peripheral blood lymphocytes; test: Lipopolysaccharide-stimulated TNFα release from human peripheral blood lymphocytes; type: cell-based; conditions: Lymphocyte; LPS-stimulated TNFα release from human PBL
valueKind: EC50 (nM)
Give bare numbers, in nM.

Before answering, review these 2 worked examples.
compound: COc1ccc([C@@H]2CN(Cc3ccccc3)C[C@@]2(C)C(C)N)cc1OC1CCCC1 (stereo partly shown) [Example 8]
numericReadout: 1560
//
compound: CNC(C)[C@]1(C)CN(C(=O)OC)C[C@H]1c1ccc(OC)c(OC2CCCC2)c1 (mixture of isomers) [Example 19]
numericReadout: 59

# return EC50 for each item in the list
1. COc1ccc([C@@H]2CN(Cc3ccccc3)C[C@@]2(C)C(C)N)cc1OC1CCCC1 (single isomer, unassigned) [Example 9]
2. CCNC[C@]1(C)CN(C(=O)OC)C[C@H]1c1ccc(OC)c(OC2Cc3ccccc3C2)c1 [Example 28]

609
1390

----------
test system: TNFα secretion in human peripheral blood lymphocytes; assay: Lipopolysaccharide-stimulated TNFα release from human peripheral blood lymphocytes; assay type: cell-based; details: Lymphocyte; LPS-stimulated TNFα release from human PBL
For each of the compounds below, state its pEC50.
Give bare numbers, as −log10 of the molar value.

compound: COC(=O)N1CC(c2ccc(OC)c(OC3CCCC3)c2)[C@](C)(CNS(=O)(=O)c2ccccc2)C1 (stereo partly drawn)
valueKind: pEC50
numericReadout: 6.14
//
compound: COc1ccc([C@@H]2CN(C(=O)C(C)(C)O)C[C@@]2(C)CN)cc1OCC1CC1
valueKind: pEC50
numericReadout: 6.35
//
compound: COC(=O)N1C[C@@H](c2ccc(OC)c(OC3CCCC3)c2)[C@](C)(CNCc2ccccc2)C1
valueKind: pEC50
numericReadout: 6.11
//
compound: COC(=O)N1C[C@@H](c2ccc(OC)c(OC3Cc4ccccc4C3)c2)[C@](C)(CN)C1
valueKind: pEC50
numericReadout: 7.12

# return pEC50 for each item in the list
1. COC(=O)N1C[C@@H](c2ccc(OC)c(OC3CCCC3)c2)[C@](C)(C(C)NC(C)=O)C1 (stereo partly drawn)
2. COC(=O)N1C[C@@H](c2ccc(OC)c(OC3CCCC3)c2)[C@](C)(CN)C1
3. COc1ccc([C@@H]2CN(C(=O)CO)C[C@@]2(C)CN)cc1OCC1CC1
4. COc1ccc(C2CN(Cc3ccccc3)C[C@@]2(C)C(C)N)cc1OC1CCCC1 (stereo partly drawn)
5. COC(=O)N1C[C@@H](c2ccc(OC)c(OCC3CC3)c2)[C@](C)(CN)C1

1: 6.22; 2: 6.85; 3: 6.09; 4: 6.70; 5: 7.07

----------
target: recombinant human PDE4; construct: PDE4 IC50; other: human recombinant PDE4; assay: PDE4 inhibition, charcoal separation [32P]cAMP phosphodiesterase assay; assay type: biochemical
valueKind: pIC50
One number for each entry, as −log10 of the molar value.

Before answering, review these 5 worked examples.
compound: COc1ccc([C@@H]2CN(Cc3ccccc3)C[C@@]2(C)C(C)NC(C)=O)cc1OC1CCCC1 (stereo partly drawn) [Example 12]
pIC50: 4.83

compound: CNC(C)[C@]1(C)CN(C(=O)OC)C[C@H]1c1ccc(OC)c(OC2CCCC2)c1 (mixture of isomers)
pIC50: 7.29

compound: COc1ccc([C@@H]2CN(Cc3ccccc3)C[C@@]2(C)C(C)NS(C)(=O)=O)cc1OC1CCCC1 (stereo partly drawn) [Example 17]
pIC50: 5.06

compound: COC(=O)N1CC(c2ccc(OC)c(OC3CCCC3)c2)[C@](C)(CNS(C)(=O)=O)C1 (stereo partly drawn)
pIC50: 5.50

compound: COC(=O)N1C[C@@H](c2ccc(OC)c(OC3CCCC3)c2)[C@](C)(CNC(=O)c2ccccc2)C1
pIC50: 5.60

Name the recorded pIC50 of the compound listed here: COC(=O)N1C[C@@H](c2ccc(OC)c(OC3CCCC3)c2)[C@](C)(CN)C1 7.55

Values from patent US6680336B2
